- measurement target: hNET (Homo sapiens)
- Construct: expressed in transfected cells
- Sequence (P23975 whole entry): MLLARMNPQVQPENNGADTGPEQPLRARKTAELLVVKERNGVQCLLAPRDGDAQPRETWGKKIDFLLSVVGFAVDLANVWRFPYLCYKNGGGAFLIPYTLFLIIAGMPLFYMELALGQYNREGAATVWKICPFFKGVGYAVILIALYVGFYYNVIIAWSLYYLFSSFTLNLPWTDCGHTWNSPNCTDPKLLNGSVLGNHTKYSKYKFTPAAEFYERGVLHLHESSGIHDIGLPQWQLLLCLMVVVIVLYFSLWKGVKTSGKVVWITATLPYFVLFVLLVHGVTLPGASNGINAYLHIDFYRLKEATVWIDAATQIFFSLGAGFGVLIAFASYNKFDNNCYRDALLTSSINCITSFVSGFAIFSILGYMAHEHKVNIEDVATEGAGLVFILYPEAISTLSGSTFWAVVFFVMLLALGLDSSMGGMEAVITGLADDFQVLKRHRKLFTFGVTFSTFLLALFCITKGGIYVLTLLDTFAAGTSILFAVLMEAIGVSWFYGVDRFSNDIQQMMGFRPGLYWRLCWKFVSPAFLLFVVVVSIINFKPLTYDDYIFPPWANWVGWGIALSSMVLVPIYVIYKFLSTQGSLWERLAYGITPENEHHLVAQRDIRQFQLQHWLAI
- procedure text: Norepinephrine (NE) uptake assay in MDCK-Net6 cells stably transfected with human hNET
- Type: cell-based
- condition notes: MDCK-Net6, 1 μM test compound, [3H]NE uptake
Where a name gives a salt, the structure may show the parent alone.
observable: inhibition at 1 µM (%)

P: COc1ccc2cc(C(CN3CCC(N)CC3)C3(O)CCCCC3)ccc2c1 (stereo not drawn) [Example 342, dihydrochloride]
Q: N[C@H]1CCN(CC(c2ccc(OCc3ccccc3)c(Cl)c2)C2(O)CCCCC2)C1 (stereo partly drawn) [Example 210, dihydrochloride]
R: COC1CCN(CC(c2ccc(OCc3ccccc3)c(Cl)c2)C2(O)CCCCC2)CC1 (stereo not drawn) [Example 242, hydrochloride]
S: CN[C@H]1CCN(CC(c2cccc(OC(F)(F)F)c2)C2(O)CCCCC2)C1 (stereo partly drawn) [Example 215, dihydrochloride]
// query Would you mind ranking these molecules by ascending inhibition at 1 µM? A complete answer lists every label in the requested sequence.
// result R, S, P, Q
(R: 2%, S: 30.2%, P: 59%, Q: 88.8%)
